molecular target: PPARγ (peroxisome proliferator-activated receptor γ) (Homo sapiens); construct: gene PPARG; PPARγ-LBD; test: LanthaScreen TR-FRET PPARγ competitive binding assay; supported by PPARγ reporter gene activation in HepG2 cells
Sequence (P37231 235-505 limits assumed): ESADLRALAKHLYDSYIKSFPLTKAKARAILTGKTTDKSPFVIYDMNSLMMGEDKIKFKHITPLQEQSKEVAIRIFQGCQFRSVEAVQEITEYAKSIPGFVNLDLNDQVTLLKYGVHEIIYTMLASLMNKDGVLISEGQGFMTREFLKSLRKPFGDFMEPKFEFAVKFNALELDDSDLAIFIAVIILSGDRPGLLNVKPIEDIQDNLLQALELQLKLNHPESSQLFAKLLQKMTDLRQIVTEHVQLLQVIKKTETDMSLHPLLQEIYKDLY
quantity: Ki

>>> print(df.to_string())
                           smiles_structure                               system_name  quantity  endpoint_result
0  O=C(NCc1ccco1)c1ccc(OCc2ccc(C(F)(F)F)cc2)cc1  PPARγ (peroxisome proliferator-activated receptor γ) (Homo sapiens)        Ki           320 nM
